experiment: Human HepG2 cell viability assay in 384 well format; assay type: toxicity, cell-based; parameters: dose 125 nL, time 70.5 hour; concentration not given beside the values; conditions: HepG2 cells, read-out: Inhibition
Result Type: cytotoxicity at 70.5 h (%)
Express your answer in %, writing the number without its unit.

Compound	Unit Annotation	cytotoxicity at 70.5 h
O=C(CCc1ccc(-n2cnnn2)cc1)Nc1nncs1	%	-8.9
Cc1ccc(C(=O)O)cc1-c1cccc(C(C)N(C)C)c1 (centres undefined)	%	-2.39
CC(C)(C)NS(=O)(=O)c1cc(NC(=O)C2CC2)ccc1F	%	-5.03
C=C1C(C)(C)[C@H]2CC[C@]1(C(=O)N1CCC(n3cc(CO)nn3)CC1)C2	%	-7.81
CN(C)C(Cn1ccnc1-c1nccn1C)c1ccccc1Cl (centres undefined)	%	-5.92

Q: Requested field: cytotoxicity at 70.5 h. Item: "O=C(c1cscn1)N1CCO[C@H]2[C@@H](Oc3ccccn3)CC[C@@H]21"
Result: -10.4

Q: How about this compound: CC(C)C(C)N(C)C(=O)COc1ccccc1C#N (centres undefined)
Result: 1.38

Q: Now consider "N#Cc1ccc(NCCc2n[nH]c(=O)[nH]2)cc1Cl" .
Result: -10.2

Q: Next entry: CNS(=O)(=O)c1cccc(C(C)NCc2ccc(F)c(F)c2)c1 (centres undefined)
Result: -6.64

Q: // same read-out, input: "CCCN1CCN(C(=O)c2ccc3ccccc3n2)[C@H]2CS(=O)(=O)C[C@H]21"
Result: 13.2

Q: Follow-up entry: "COCCOc1ccc(-c2noc([C@@H]3CCCN3C3CCC3)n2)cn1"
Result: -3.43

Q: Also NC(=O)c1cc(C2CCCN(CCOc3ccc(F)cc3)C2)n[nH]1 (centres undefined) ?
Result: -2.25

Q: Please answer likewise for "COc1ccccc1C1(CNC(=O)NCc2noc(C)n2)CC1"
Result: 26.4

Q: Can you check Cc1nc(C)n(CC2CCCCN2c2ncnc3ccsc23)n1 (centres undefined) next?
Result: -11.9

* * *

experiment: Human HepG2 cell viability assay in 384 well format; assay type: toxicity, cell-based; parameters: dose 125 nL, time 70.5 hour; concentration not given beside the values; conditions: HepG2 cells, read-out: Inhibition
Result Type: cytotoxicity at 70.5 h (%)
Report as a plain number; the unit % is understood.

Compound	Unit Annotation	cytotoxicity at 70.5 h
CC(C)c1ccc(-n2ncc(C(=O)NCC3COC(C)(C)O3)c2N)cc1 (centres undefined)	%	26.2
O=C(Nc1ccnn1C1CCCC1)c1ccc(NC2CC2)nc1	%	3.1
CN(Cc1ccsc1)Cc1nc(-c2ccncc2)no1	%	20.5
CC(C(=O)NC(C)(C)C)N1CCC(C(=O)Nc2cnccn2)CC1 (centres undefined)	%	-8.75
CC(C)N1CCCN(c2nc(-c3cccnc3)nc3c2cnn3C)CC1	%	36.6
CN(Cc1ccncn1)C(=O)c1cccc(CCC(C)(C)O)c1	%	-2.23

Q: Suppose we examine the compound CC(SCC(=O)N(C)CC(=O)NC1CC1)c1ccccc1F (centres undefined) ; what cytotoxicity at 70.5 h value has been reported?
Result: -5.51

* * *

experiment: Human HepG2 cell viability assay in 384 well format; format: toxicity, cell-based; design: dose 125 nL, time 70.5 hour; concentration not given beside the values; settings: HepG2 cells, read-out: Inhibition
Recorded cytotoxicity at 70.5 h by entry
Write it as a number; the unit % goes unstated.

Compound	Unit Annotation	Observed
CN1CC[C@H]2CN(C(=O)c3ccc4sc5c(c4c3)CCNC5=O)C[C@H]21	%	-1.19

Q: Reported cytotoxicity at 70.5 h for "CSCCCN1C[C@H](NC(=O)c2cnn(C)c2)[C@@H](C2CC2)C1" : what is it?
Result: -7.31

Q: # repeat for CSCC(=O)N1CCCC(n2ccnc2C(C)C)C1 (stereo not given)
Result: -7.04

Q: Also check "CS(=O)(=O)c1ccc(-c2c[nH]c([C@@H]3COCCN3)n2)cc1"
Result: -8.19

Q: Request: "COCCNC(=O)CN1CCN(c2nc3cc(C)ccc3o2)CC1"
Result: -1.86
